# TARGET_OR_TEST_SYSTEM: GAPDH of T. brucei (Trypanosoma brucei brucei)
# Sequence (P22512 whole entry): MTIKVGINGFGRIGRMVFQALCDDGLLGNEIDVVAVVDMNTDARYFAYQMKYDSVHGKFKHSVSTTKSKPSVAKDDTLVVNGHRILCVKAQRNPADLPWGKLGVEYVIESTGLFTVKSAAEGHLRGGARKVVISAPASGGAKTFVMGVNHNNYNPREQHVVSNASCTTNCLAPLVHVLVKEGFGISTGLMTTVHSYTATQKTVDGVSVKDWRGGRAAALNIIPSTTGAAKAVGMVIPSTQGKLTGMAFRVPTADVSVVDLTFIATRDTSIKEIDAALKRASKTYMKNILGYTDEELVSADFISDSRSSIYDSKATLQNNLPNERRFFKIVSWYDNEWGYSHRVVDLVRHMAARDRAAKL
pIC50: −log10 of the molar value.

{"columns": ["COMPOUND", "pIC50"],
 "data": [
  ["C=C(C)[C@@H](CC)CC(O)[C@@H](C)[C@H]1CC[C@H]2[C@@H]3CC=C4C[C@@H](O)CC[C@]4(C)[C@H]3CC[C@]12C (stereo partly drawn) [Compound 1, (3β,24S)-Stigmasta-5,25-diene-3,22-diol]", 4.52]
]}

---

Observed IC50 for UniProt P13377, reported per entry below.
Sequence (P13377 whole entry): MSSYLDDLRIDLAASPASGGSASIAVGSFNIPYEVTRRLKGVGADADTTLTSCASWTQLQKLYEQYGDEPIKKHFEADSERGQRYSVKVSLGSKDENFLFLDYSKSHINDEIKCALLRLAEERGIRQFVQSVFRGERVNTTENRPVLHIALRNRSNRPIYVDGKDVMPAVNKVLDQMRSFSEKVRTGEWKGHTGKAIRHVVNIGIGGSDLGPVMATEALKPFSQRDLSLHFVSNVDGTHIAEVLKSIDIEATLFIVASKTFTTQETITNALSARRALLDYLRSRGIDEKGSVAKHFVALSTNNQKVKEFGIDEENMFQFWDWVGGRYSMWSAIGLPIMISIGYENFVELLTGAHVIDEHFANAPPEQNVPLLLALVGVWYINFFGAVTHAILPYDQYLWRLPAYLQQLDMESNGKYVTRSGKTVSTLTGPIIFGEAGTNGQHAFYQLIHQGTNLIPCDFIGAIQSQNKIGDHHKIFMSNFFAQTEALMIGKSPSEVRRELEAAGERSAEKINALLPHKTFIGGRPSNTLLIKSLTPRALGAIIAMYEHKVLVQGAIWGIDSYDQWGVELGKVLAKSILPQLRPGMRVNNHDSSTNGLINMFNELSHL

{"columns": ["COMPOUND", "IC50"],
 "data": [
  ["C=C(C)[C@@H](CC)CC(O)[C@@H](C)[C@H]1CC[C@H]2[C@@H]3CC=C4C[C@@H](O)CC[C@]4(C)[C@H]3CC[C@]12C (stereo partly drawn) [Compound 1, (3β,24S)-Stigmasta-5,25-diene-3,22-diol]", "30 µM"],
  ["C=C(C)[C@@H](CC)CC[C@@H](C)[C@H]1CC[C@H]2[C@@H]3CC=C4C[C@@H](O)CC[C@]4(C)[C@H]3CC[C@]12C [Compound 2, (3β,24S)-Stigmasta-5,25-dien-3-ol]", "45 µM"]
]}
